Reference source: ChEMBL document CHEMBL1201862

# Test system: SK-MEL-28
# ASSAY PROCEDURE: NCI tumour cell line growth inhibition, 48 h
The source made the active and inactive calls. Cut-off read from the data, not from the text of the source: active = GI50 up to about 1.1 µM and inactive = higher.
Measured GI50, listed per entry.

In [3]: df
Out[3]:
                                   compound  measured_parameter      endpoint_value
0  S=c1oc(CCCCCCCCc2nn(CNc3ccc(Cl)cc3)c(=S)o2)nn1CNc1ccc(Cl)cc1                GI50  20.3 µM (inactive)
1  COc1cc2c(cc1OCCCC(=O)Nc1cc(C(=O)Nc3cc(C(=O)Nc4cc(C(=O)NCCCN(C)C)n(C)c4)n(C)c3)n(C)c1)N=C[C@@H]1CCCN1C2=O                GI50  2.15 µM (inactive)

GI50 reported for this compound C=CCN(N=O)C(=O)N(CCC)CCCC(NC(C)=O)C(=O)NCc1ccccc1 (stereo unspecified) : > 100 µM (inactive)

GI50 reported for this compound CN(C)c1c(C2OC(CO)C(O)C2O)c(=O)c1=O (stereo unspecified) : > 100 µM (inactive)

GI50 reported for this compound `COCCOC1=CC(=O)c2c(O)ccc(O)c2C1=O` : 1.52 µM (inactive)

GI50 reported for this compound `CSc1nc(-c2ccccc2)nc(N2CCOCC2)[s+]1` : > 100 µM (inactive)

###

# Tested on: A498
# ASSAY PROCEDURE: NCI tumour cell line growth inhibition, 48 h
Activity calls are given as the source filed them. Cut-off read from the data, not from the text of the source: active = GI50 up to about 1.1 µM and inactive = higher. Non-standard residues stand in square brackets, D forms with d. Residues, ends and D or L forms follow the SMILES beside them. β3hI = CC[CH](C)[CH](N)CC(=O)O
Bench note: report the call from True for active, False for inactive

MOLECULE	EXPERIMENTAL TARGET	CLASSIFICATION
C[C@]12CCC(=O)C=C1CC[C@@H]1[C@@H]2CC[C@]2(C)C(=O)/C(=C\c3ccccc3)C[C@@H]12	A498	False
CC(C)c1cccc(C(C)C)c1NC(=O)C(=O)CC(=O)CC(c1ccccc1)c1c(O)oc2ccccc2c1=O (configuration not stated)	A498	False
O=C(O)C1(Cc2ccc3c(c2)CCC3)Cc2ccccc2C1=O (configuration not stated)	A498	False
CCCCCC(=O)OCCOCCOCCOCCOCCOCc1ccccc1	A498	False
Oc1c(Br)cc(Br)cc1CN(Cc1cc(Br)cc(Br)c1O)C1CCCCC1	A498	False

Given CC1=NN(c2cccc(Cl)c2)C2(C1)SCC(=O)N2c1nc2ccccc2s1 (configuration not stated) , state the outcome it received in this test.
False

Given CCC(C)C(CC(=O)N1CCCC1C(=O)NC(C(=O)NC(C(=O)NCC(=O)NC(CC(N)=O)C(=O)NC(C(=O)NC(C(=O)NC(CCCCN)C(N)=O)C(C)CC)C(C)CC)C(C)C)C(C)CC)NC(=O)C(N)C(C)CC (stereo not drawn) (H-I[β3hI]PIVGNIIK-NH2; configuration not given here) , state the outcome it received in this test.
False

Given CC(=O)OCC1OC(n2c(C)c(C(C)=O)c(-c3ccc(Cl)cc3)c(C#N)c2=S)C(OC(C)=O)C(OC(C)=O)C1OC(C)=O (configuration not stated) , state the outcome it received in this test.
False

###

Measured GI50, listed per entry.
# System: SNB-75
# ASSAY PROCEDURE: NCI tumour cell line growth inhibition, 48 h
Active and inactive are the calls of the source. Rule as the data show it: active = GI50 up to about 1.1 µM and inactive = higher.

>>> df
                                   compound       endpoint_value
0  CCN1C(=S)n2cccc2C1CC(=O)c1ccc(Cl)cc1 (stereo not given)   54.7 µM (inactive)
1  Cc1ccc(S(=O)(=O)n2c3ccc(Br)cc3c3nc4ccccc4nc32)cc1  > 100 µM (inactive)
2    N#CC(C#N)/N=N/c1ccc(-c2nc3ccccc3o2)cc1   24.4 µM (inactive)
3  C=C1C(=O)OC2C1CC1OC2C(C)CCC/C(C)=C\CCC1(C)O (stereo not given)   15.3 µM (inactive)
4  COc1ccc2nc3ccc(OC)cc3c([S+]([O-])CCCl)c2c1 (stereo not given)   17.8 µM (inactive)
5  O=C1C2=Nc3ccccc3C(O)(C(=O)O)N2c2ccccc21 (stereo not given)   27.2 µM (inactive)
6  O=C1/C(=C/c2ccc(Cl)cc2)CNC/C1=C\c1ccc(Cl)cc1    2.9 µM (inactive)
7  O=C(Cc1nc2ccccc2[nH]c1=O)c1c[nH]c2ccccc12   25.1 µM (inactive)

GI50 reported for this compound `COc1cc(OC)c2c(=O)c(OC)c(-c3ccc4c(c3)OCO4)oc2c1OC` : > 100 µM (inactive)

GI50 reported for this compound `Clc1ccc(Cl)c(Nc2ccnc(SCc3ccccc3)n2)c1` : > 100 µM (inactive)

GI50 reported for this compound `O=C(O)c1cc(-c2ccc(-c3ccccc3)cc2)nc2cc3ccccc3cc12` : 29.2 µM (inactive)

GI50 reported for this compound `CN(C)Cc1cc(/N=N/c2ccccc2Cl)ccc1O` : 18.7 µM (inactive)

GI50 reported for this compound `CC1(CC2=C(C(=O)NCCO[Si](C)(C)C(C)(C)C)C3(OCCO3)C2=O)OCCO1` : 36.5 µM (inactive)
